Attribution: the nanobody polyreactivity screen of Harvey et al. (2022)

# experiment: yeast display, Sf9 membrane polyspecificity reagent, FACS + sequencing; frameworks hold sequencing errors
endpoint_name: polyreactivity (PSR sort gate)

The following sequences have reported results that may help.
QVQLVESGGGLVHAGGSLRLSCAASGSIFNYYAMGWYRQAPGKERELVAAISYGTGSTYYADSVKWRFTISRDNAKNTDYLQMNSLKPEDTAVYYCAADTRYGYGYWGQGTQVTVSS | high polyreactivity
QVQLVESGGGLVQAGGSLRLSCAASGLTFYYNAMGWYRQAPGKERELVAAITWSTDSTYYADSVKGRFTISRDNAKNTVYLQMNSLKPEDTAVYYCAAAVDAFTNKQYYYWGQGTQVTVSS | low polyreactivity
QVQLVESGGGLVQAVGSLRLSCAASGFIFGTYAMGWYRQAPGKERELVAVITRGGTTYYADSVKGRFTISRDNAKNTVYLQMNSLKPEDTAVYYCAADPWALFVGDEYYYWGQGTQVTVSS | low polyreactivity
QVQLVESGGGLVQAGGSLRLSCAASGGTYVGYSMGWYRQAPGKERELDATITRRGGNTYYADSVKGRFTISRDNAKNTVYLQMNSLKPEDTAVYYCAARKKGSRVGYDYWGQGTQVTVSS | high polyreactivity
QVHHEETGGGIVQAGGSLRLSCAASGRIFDYIAMGWYRQAPGKERELVAAISQSGGSTYYADSVKGRFTISRDNAKNTVYLQMNSLKPEDTAVYYCAAFISRSRNEYWGQGTLVTVSS | high polyreactivity
QVQLVESGGGLVQAGGSLRLSCAASGSTLIANAMGWYRQAPGKERELVAGITYRGGDITTYADSVKGRFTISRDNAKNTVYLQKTSLKPEDTAVYYCAARVVWPTWARGGYWGQGTQVTVSS | low polyreactivity

// query Reported polyreactivity (PSR sort gate), sequence `QVQLVESGGGLVQAGGSLRLSCAASGFTFKSNAMGWYRPSPGKERELVAAITWNGGSTYADSEKGRFTISRDNAKNTVYLQMNSLKPEDTAVYYCAARPYPHSAYEGDYWGRGTQVTVSS` : ____
// result low polyreactivity

// query Reported polyreactivity (PSR sort gate), sequence `QVQLVESGGGLVQAGGSLRLSCAASGRTFDHYAMGWYRQAPGKERELVAAITSGGSTYYADSVKGRFTISRDNAKNTVYLQMNSLKPEDTAVYYCNKDSSFWGCYIAQVNERDYWGQGTQVTVSS` : ____
// result low polyreactivity

// query Reported polyreactivity (PSR sort gate), sequence `QVQLVESGGGLVQAGGSLRLSCAASGYTFVIYAMGWYRQAPGKERELVAAITTIGGRTYYADSVKGRFTISRDNAKNTVYLLMNSLKPEDTAVYYCAADIRSNRLYDGGYWGQGTQVTVSS` : ____
// result low polyreactivity

// query Reported polyreactivity (PSR sort gate), sequence `QVQLVESGGGLVQAGGSLRLSCAASGSIFFRYAMGWYRQAPGKVRELVANISSGGGNTYYADSVKGRFTISRDNAKNTVYLQMNSLKPEDTAVYYCARRLATRGHTYDYWGQGTQVTVSS` : ____
// result low polyreactivity

// query Reported polyreactivity (PSR sort gate), sequence `QVQLVESGGGLVQAGGSLRLSCAASGSIFVGNAMGWSRQAPGKERELVAAISLSGGSTYFADSVKGRFTISRDNAKNTVYLQMNSLKPDDTAVYYCAAQTKPASRVTYYWYYYWGQGTQVTVSS` : ____
// result low polyreactivity
